System: M. tuberculosis H37Rv
Test: Anti-TB broth dilution MIC
Format: cell-based, Mycobacterium tuberculosis
Conditions: Mycobacterium tuberculosis, H37RV, broth dilution, triplicate, n = 3
*1 amine or outer side, *2 acyl side, *3 side chain or, on linkers, in order; H or OH if unused. Where a SMILES comes first, the peptide text is derived from it. [ ]: non-standard residue; d: D form. ξ: configuration not given here. Trp(1-(1,1-Me2-allyl)) = C=CC(C)(C)n1cc(C[C@H](N)C(=O)O)c2ccccc21; NMeGlu(4S-Me) = C[C@@H](C[C@@H](C(=O)[*:2])N(C)[*:1])C(=O)[*:3]; Tyr(3-NO2) = N[CH](Cc1ccc(O)c([N+](=O)[O-])c1)C(=O)O; X1 = CC(C)(C1CO1)n1cc(CC(N[*:1])C(=O)[*:2])c2ccccc21; X2 = CC(CC(C(=O)[*:2])N(C)[*:1])C(=O)O; Gly(E-crotyl) = C/C=C/C[C@H](N)C(=O)O; ξNle(4,5-dehydro) = CC=CCC(N)C(=O)O; NMeL = CN[CH](CC(C)C)C(=O)O
readoutType: MIC (µM)
Quick note: give the figure in µM, leave out the unit.

Reported MIC, molecule C=CC(C)(C)n1cc(C[C@@H]2NC(=O)[C@H](C/C=C/C)NC(=O)[C@H](CC(C)C)NC(=O)[C@H](C[C@H](C)C(=O)O)N(C)C(=O)[C@H](C)NC(=O)[C@H](Cc3ccc(O)c([N+](=O)[O-])c3)NC(=O)[C@H](CC(C)C)N(C)C2=O)c2ccccc21 [compound 8, ilamycin F] (cyclo(A[NMeGlu(4S-Me)]L[Gly(E-crotyl)][Trp(1-(1,1-Me2-allyl))][NMeL][Tyr(3-NO2)])) : ____ 1.2

Given the molecule CC=CCC1NC(=O)C(CC(C)C)N2C(=O)C(CC(C)C2O)N(C)C(=O)C(C)NC(=O)C(Cc2ccc(O)c([N+](=O)[O-])c2)NC(=O)C(CC(C)C)N(C)C(=O)C(Cc2cn(C(C)(C)C3CO3)c3ccccc23)NC1=O (stereo not drawn) [3/4] , what is its reported MIC? 9.6

What value of MIC has been recorded for this entry: CC=CCC1NC(=O)C(CC(C)C)NC(=O)C(CC(C)C)N(C)C(=O)C(C)NC(=O)C(Cc2ccc(O)c([N+](=O)[O-])c2)NC(=O)C(CC(C)C)N(C)C(=O)C(Cc2cn(C(C)(C)C3CO3)c3ccccc23)NC1=O (stereo not drawn) [compound 2, ilamycin B2] (cyclo([ξNle(4,5-dehydro)][X1][NMeL][Tyr(3-NO2)]A[NMeL]L); configuration not given here) 2.4

Item C=CC(C)(C)n1cc(C[C@@H]2NC(=O)[C@H](C/C=C/C)NC(=O)[C@H](CC(C)C)N3C(=O)[C@H](C[C@H](C)C3O)N(C)C(=O)[C@H](C)NC(=O)[C@H](Cc3ccc(O)c([N+](=O)[O-])c3)NC(=O)[C@H](CC(C)C)N(C)C2=O)c2ccccc21 (stereo partly drawn) [6/7] has what recorded MIC? 0.0098

What MIC value was documented for this molecule, CC=CCC1NC(=O)C(CC(C)C)NC(=O)C(CC(C)C(=O)O)N(C)C(=O)C(C)NC(=O)C(Cc2ccc(O)c([N+](=O)[O-])c2)NC(=O)C(CC(C)C)N(C)C(=O)C(Cc2cn(C(C)(C)C3CO3)c3ccccc23)NC1=O (stereo not drawn) [compound 5, ilamycin D] (cyclo([X2]L[ξNle(4,5-dehydro)][X1][NMeL][Tyr(3-NO2)]A); configuration not given here) ? 1.2

Can you share its MIC? I mean this molecule: C=CC(C)(C)n1cc(C[C@@H]2NC(=O)[C@H](C/C=C/C)NC(=O)[C@H](CC(C)C)NC(=O)[C@H](CC(C)C)N(C)C(=O)[C@H](C)NC(=O)[C@H](Cc3ccc(O)c([N+](=O)[O-])c3)NC(=O)[C@H](CC(C)C)N(C)C2=O)c2ccccc21 [compound 1, ilamycin B1] (cyclo(A[NMeL]L[Gly(E-crotyl)][Trp(1-(1,1-Me2-allyl))][NMeL][Tyr(3-NO2)])) 98.9
